- method.description: in vivo
- experimental.conditions: female, C57BL/6, mouse, po, 200 mg/kg
parameter.measured: Cmax (ng/mL)

>>> print(df.to_string())
                                 cpd_smiles  parameter_measured  reported_measurement
0  CN(C)CCOc1ccc(/C(=C(/CCCl)c2ccccc2)c2ccccc2)cc1                Cmax                  1300

* * *

- method.description: in vivo
- experimental.conditions: female, C57BL/6, mouse, po, 500 mg/kg
parameter.measured: half-life (min)

                                   molecule  reported_measurement
0  CC(C)COCC(CN(Cc1ccccc1)c1ccccc1)N1CCCC1 (stereo not shown)                    30

* * *

- method.description: in vivo
- experimental.conditions: female, C57BL/6, mouse, po, 60 mg/kg
parameter.measured: half-life (h)

>>> print(df.to_string())
                                 cpd_smiles  parameter_measured  reported_measurement
0  CN[C@H]1CC[C@@H](c2ccc(Cl)c(Cl)c2)c2ccccc21           half-life                     1

* * *

- method.description: in vivo
- experimental.conditions: female, C57BL/6, mouse, po, 30 mg/kg
parameter.measured: MRT (h)

>>> print(df.to_string())
                                 cpd_smiles  parameter_measured  result_unit  reported_measurement
0  CN[C@H]1CC[C@@H](c2ccc(Cl)c(Cl)c2)c2ccccc21                 MRT            h                    11

* * *

- method.description: in vivo
- experimental.conditions: female, C57BL/6, mouse, po, 150 mg/kg
parameter.measured: half-life (min)

                                   compound  result_unit  reported_measurement
0  CC(C)COCC(CN(Cc1ccccc1)c1ccccc1)N1CCCC1 (stereo not shown) [Bepridil]          min                    30

* * *

- experimental.conditions: C57BL/6, mouse, in vivo, po
Documented Cmax across a set of compounds
parameter.measured: Cmax

>>> print(df.to_string())
                                   compound  reported_measurement
0  CC(C)COCC(CN(Cc1ccccc1)c1ccccc1)N1CCCC1 (stereo not drawn)              ~3000 nM
1  CN[C@H]1CC[C@@H](c2ccc(Cl)c(Cl)c2)c2ccccc21              ~1200 nM
2  CN(C)CCOc1ccc(/C(=C(/CCCl)c2ccccc2)c2ccccc2)cc1              ~4400 nM

* * *

- method.description: in vivo
- experimental.conditions: female, C57BL/6, mouse, po, 60 mg/kg
parameter.measured: MRT

In [3]: df
Out[3]:
                                   compound  parameter_measured  reported_measurement
0  CN[C@H]1CC[C@@H](c2ccc(Cl)c(Cl)c2)c2ccccc21 [Sertraline]                 MRT                   5 h
